test: PK Phase (Group 2): plasma concentrations and pharmacokinetics of Compound 18 and its metabolite Compound 4 after once daily ocular instillation of Compound 18 nanosuspension for 7 days; format: in vivo, New Zealand white rabbits; conditions: male, New Zealand white, rabbit, plasma, other: ocular instillation (eye drop), 0.821 mg/kg/day, 24 h; animal 207666; read-out: Day 1 Compound 18 Plasma Concentration
Measured endpoint: concentration at 24 h (ng/mL)

>>> print(df.to_string())
                                   compound      measured_endpoint  unit_tag  assay_value
0  CCCc1nn(C)c2c(=O)[nH]c(-c3cc(S(=O)(=O)N4CC(CCCO[N+](=O)[O-])C4)ccc3OCC)nc12 [Compound 18]  concentration at 24 h     ng/mL       0.0682

###

test: TD Phase (Groups 1 and 3): plasma and ocular tissue concentrations and pharmacokinetics of Compound 18 and its metabolite Compound 4 after once daily ocular instillation of Compound 18 nanosuspension for 7 days; type: in vivo, New Zealand white rabbits; conditions: male, New Zealand white, rabbit, topical or ocular; Sclera/Choroid; Day 7; Compound 18 0.8 mg/kg ocular instillation once daily; Groups 1 and 3
Measured endpoint: Cmax (ng/g)

>>> print(df.to_string())
                                  structure  unit_tag  assay_value
0  CCCc1nn(C)c2c(=O)[nH]c(-c3cc(S(=O)(=O)N4CC(CCCO)C4)ccc3OCC)nc12      ng/g          303

###

Test: TD Phase (Groups 1 and 3): plasma and ocular tissue concentrations and pharmacokinetics of Compound 18 and its metabolite Compound 4 after once daily ocular instillation of Compound 18 nanosuspension for 7 days
Type: in vivo, New Zealand white rabbits
Conditions: male, New Zealand white, rabbit, topical or ocular; Lens; Day 7; Compound 18 0.8 mg/kg ocular instillation once daily; Groups 1 and 3
Procedure: This example illustrates the procedures and results for the levels of Compound 18 and its metabolite Compound 4 in plasma and ocular tissues of normotensive rabbits following ocular instillation of Compound 18 once daily for 7 consecutive days. […] Plasma and tissue samples from treated animals (Groups 1-3) were analyzed for Compound 18 and its metabolite Compound 4 concentrations by LC-MS/MS. […] BA Assay: Quantitation Range 0.05 to 100 ng/mL for Compound 18, 0.15 to 100 ng/mL for Compound 4. […]
Measured endpoint: half-life (h)

                                  structure  assay_value
0  CCCc1nn(C)c2c(=O)[nH]c(-c3cc(S(=O)(=O)N4CC(CCCO)C4)ccc3OCC)nc12         2.25

###

assay: TD Phase (Groups 1 and 3): plasma and ocular tissue concentrations and pharmacokinetics of Compound 18 and its metabolite Compound 4 after once daily ocular instillation of Compound 18 nanosuspension for 7 days; assay type: in vivo, New Zealand white rabbits; conditions: male, New Zealand white, rabbit, lens, topical, 2 mg/day, TD Phase, Group 3, 0.5 h, Mean; read-out: Final Compound 18 Lens Conc.
Measured endpoint: concentration at 0.5 h (ng/g)

In [3]: df
Out[3]:
                                  structure       measured_endpoint  assay_value
0  CCCc1nn(C)c2c(=O)[nH]c(-c3cc(S(=O)(=O)N4CC(CCCO[N+](=O)[O-])C4)ccc3OCC)nc12  concentration at 0.5 h         2.12
